Source: ChEMBL document CHEMBL1154263

- Tested on: MCF7
- test: Cytotoxicity against human MCF7 cells by resazurin microplate assay
- Assay type: functional, cell-based
pIC50: −log10 of the molar value.
// reported pIC50 per item
propertyName: pIC50

> print(dat)
                                   molecule  propertyname  operator  number
1  C=C1CCC(=O)[C@@]2(C)CC[C@H](C(C)(C)O)C[C@H]12         pIC50         =    4.70
2  O=C/C=C/C=C1/C(=O)O[C@H](/C=C/CO)[C@H]1O [EUTYPELLIN A]         pIC50         =    4.08
3  O=C1O[C@H](/C=C/CO)[C@@H](O)/C1=C\C=C\CO [EUTYPELLIN B]         pIC50         <    3.66
4  C=C1CC[C@H](O)[C@@]2(C)CC[C@H](C(C)(C)O)C[C@H]12         pIC50         <    3.68

* * *

- System: KB
- test: Cytotoxicity against human KB cells by resazurin microplate assay
- Assay type: functional, cell-based
Criterion: IC50 strictly under 2 µM. Met: Y. Not met: N.

> print(dat)
                                   molecule  testsystem  category
1  C=C1CC[C@H](O)[C@@]2(C)CC[C@H](C(C)(C)O)C[C@H]12          KB         N
2  COc1cccc2c1C(=O)c1c(O)c3c(c(O)c1C2=O)C[C@@](O)(C(=O)CO)C[C@@H]3O[C@H]1C[C@H](N)[C@H](O)[C@H](C)O1 [DOXORUBICIN]          KB         Y
3  O=C/C=C/C=C1/C(=O)O[C@H](/C=C/CO)[C@H]1O [EUTYPELLIN A]          KB         N
4  O=C1O[C@H](/C=C/CO)[C@@H](O)/C1=C\C=C\CO [EUTYPELLIN B]          KB         N
5  Cc1c2ccncc2c(C)c2c1[nH]c1ccccc12 [ELLIPTECINE]          KB         N
6  C=C1CCC(=O)[C@@]2(C)CC[C@H](C(C)(C)O)C[C@H]12          KB         N
